Tested on: BDF1 mice, s.c. Lewis lung carcinoma, T/C %
assay_protocol: NCI In Vivo Anticancer Drug Screen. Data for tumor model Lewis Lung Carcinoma (subcutaneous) in B6D2F1 (BDF1) mice
assay_setup: endpoint: median survival time; dose: 12.5 mg/kg/injection; schedule: Q01DX009 (ip); vehicle: Klucel (hydroxypropylcellulose) (HPC)
Records with an inconclusive call do not appear. How the source made its calls: active means survival T/C of 150% or more; inactive means T/C below 125% in these data.
Possible outcomes: active, inactive

> print(dat)
                                    compound                               target.desc  answer.label
 1     O=[N+]([O-])c1ccc(/C=N/c2ncc(Br)s2)o1  BDF1 mice, s.c. Lewis lung carcinoma, T/C %      inactive
 2            COc1ccc(NC(=O)N(CCCl)N=O)cc1OC  BDF1 mice, s.c. Lewis lung carcinoma, T/C %      inactive
 3  C=C1C(=O)OC2C1CCC(C)C1CCC(=O)OC12C (stereo not given)  BDF1 mice, s.c. Lewis lung carcinoma, T/C %      inactive
 4  CC(C)=CCC(OC(=O)C=C(C)C)C1=CC(=O)c2c(O)ccc(O)c2C1=O (stereo not given)  BDF1 mice, s.c. Lewis lung carcinoma, T/C %      inactive
 5  CCC(c1ccc(OC(=O)Cc2ccc(N(CCCl)CCCl)cc2)cc1)C(CC)c1ccc(OC(=O)Cc2ccc(N(CCCl)CCCl)cc2)cc1 (stereo not given)  BDF1 mice, s.c. Lewis lung carcinoma, T/C %      inactive
 6  COc1cc(C=Nc2ccc(-c3nc(Cc4ccccc4)sc3C)cc2)ccc1N(CCCl)CCCl  BDF1 mice, s.c. Lewis lung carcinoma, T/C %      inactive
 7  COc1ccc(OCC(O)CN2CCN(c3ccc(Cl)cc3)CC2)cc1 (stereo not given)  BDF1 mice, s.c. Lewis lung carcinoma, T/C %      inactive
 8     CC(C)=CCC/C(C)=C/CNCCc1c[nH]c2ccccc12  BDF1 mice, s.c. Lewis lung carcinoma, T/C %      inactive
 9  CC1(c2ccc(N(CCCl)CCCl)cc2)NC(=O)NC1=O (stereo not given)  BDF1 mice, s.c. Lewis lung carcinoma, T/C %      inactive
10  COc1cc2c(cc1Oc1c(Oc3c(O)c(OC)cc4c3C(CC(C)C)N(C)CC4)c(OC)cc3c1C(CC(C)C)N(C)CC3)C(CC(C)C)N(C)CC2 (stereo not given)  BDF1 mice, s.c. Lewis lung carcinoma, T/C %      inactive
11  O=C1N(Cl)C(=O)C(c2ccc(Cl)cc2)(c2ccc(Cl)cc2)N1Cl  BDF1 mice, s.c. Lewis lung carcinoma, T/C %      inactive
12  C=C1C(=O)O[C@@H]2[C@H]3O[C@]3(C)CCC=C(C)CC[C@@H]12  BDF1 mice, s.c. Lewis lung carcinoma, T/C %      inactive
13  CCOC(=O)C1C(=O)C(CN(CCCl)CCCl)C(=O)C(C(=O)OCC)C1c1ccc(O)cc1 (stereo not given)  BDF1 mice, s.c. Lewis lung carcinoma, T/C %      inactive
14  C[C@]12CC[C@H]3[C@@H](CC[C@]4(O)C[C@@H](O)CC[C@]34C=O)[C@@]1(O)CC[C@@H]2C1=CC(=O)OC1  BDF1 mice, s.c. Lewis lung carcinoma, T/C %      inactive
15  CC[CH2][Pb]([CH2]CC)([CH2]CC)[N]1C(=O)c2ccccc2C1=O  BDF1 mice, s.c. Lewis lung carcinoma, T/C %      inactive
16  O=[N+]([O-])c1ccc(Cl)c2c([N+](=O)[O-])cccc12  BDF1 mice, s.c. Lewis lung carcinoma, T/C %      inactive
17  O=NN(CCCl)C(=O)NCC1CCC(CNC(=O)N(CCCl)N=O)CC1 (stereo not given)  BDF1 mice, s.c. Lewis lung carcinoma, T/C %      inactive
18  COc1cc(NS(C)(=O)=O)ccc1Nc1c2ccccc2nc2ccccc12  BDF1 mice, s.c. Lewis lung carcinoma, T/C %        active
19  C=C1C(=O)OC2CC1C(O)C/C(C)=C/CC/C(C)=C/C(O)CC2C (stereo not given)  BDF1 mice, s.c. Lewis lung carcinoma, T/C %      inactive
20  O=C1N(Br)C(=O)C(c2ccc(Cl)cc2)(c2ccc(Cl)cc2)N1Br  BDF1 mice, s.c. Lewis lung carcinoma, T/C %      inactive
